- target_or_system: BRD4 (BD1) (Homo sapiens, UniProt O60885)
- Construct: His; made in house
- test_name: BRD4 AlphaLisa binding assay
- condition_details: BRD4 (BD1) 30 nM, biotinylated H4-tetraacetyl peptide 200 nM; read-out: BRD4 AlphaLisa
measured_attribute: IC50

INSERT INTO results (molecule, result_value) VALUES
  ('Cc1nnc2n1-c1ccc(C#CC(C)(C)O)cc1N(c1ccc(Cl)cc1)CC2C (centres unmarked)', '100 to 1000 nM'),
  ('Cc1nnc2n1-c1ccc(-c3cnn(C)c3)cc1N(c1ccc(C#N)cc1)C[C@@H]2C', '100 to 1000 nM'),
  ('CCNC(=O)CC1CN(c2ccc(Cl)cc2)c2ccccc2-n2c(C)nnc21 (centres unmarked)', '1000 to 10000 nM'),
  ('Cc1nnc2n1-c1ccc(-c3cnn(CC(N)=O)c3)cc1N(c1ccc(Cl)cc1)C[C@H]2C', '< 100 nM'),
  ('Cc1nnc2n1-c1ccc(-c3ccc(=O)[nH]c3)cc1N(c1ccc(Cl)cc1)C[C@H]2C', '< 100 nM'),
  ('Cc1ccc(-c2ccc3c(c2)N(c2ccc(Cl)cc2)C[C@@H](C)c2nnc(C)n2-3)cn1', '< 100 nM'),
  ('Cc1nnc2n1-c1ccc(C(=O)N3CCOCC3)cc1N(c1ccc(Cl)cc1)C[C@H]2C', '100 to 1000 nM'),
  ('Cc1nnc2n1-c1ccccc1N(c1ccc(Cl)cc1)CC21CC1CO (centres unmarked)', '1000 to 10000 nM'),
  ('Cc1nnc2n1-c1ccc(-c3ccc(=O)n(C)c3)cc1N(c1ccc(Cl)cc1)C[C@H]2C', '< 100 nM'),
  ('Cc1nnc2n1-c1ccc(-c3ccc(C(=O)O)cc3)cc1N(c1ccc(Cl)cc1)CC2', '< 100 nM'),
  ('Cc1nnc2n1-c1ccc(-c3cnn(C)c3)cc1N(c1ccc(Cl)cc1)C[C@@H]2C', '100 to 1000 nM'),
  ('Cc1nnc2n1-c1ccc(-c3cnn(C)c3)cc1N(c1ccc(Cl)cc1)C[C@H]2C', '< 100 nM'),
  ('Cc1noc(-c2ccc3c(c2)N(c2ccc(Cl)cc2)C[C@@H](C)c2nnc(C)n2-3)n1', '100 to 1000 nM'),
  ('Cc1nnc2n1-c1ccc(-c3ccc(N)nc3)cc1N(c1ccc(N)nc1)C[C@H]2C', '< 100 nM'),
  ('Cc1nnc2n1-c1ccc(Br)cc1N(c1ccc(Cl)cc1)CC2', '100 to 1000 nM'),
  ('Cc1nnc2n1-c1ccc(-c3cnn(CC(N)=O)c3)cc1N(c1ccc(C#N)cc1)C[C@H]2C', '< 100 nM'),
  ('Cc1nnc2n1-c1ccc(-c3cn[nH]c3)cc1N(c1ccc(C#N)cc1)C[C@H]2C', '< 100 nM');
